B1: CPEB3 Ribozyme (parent)
chain: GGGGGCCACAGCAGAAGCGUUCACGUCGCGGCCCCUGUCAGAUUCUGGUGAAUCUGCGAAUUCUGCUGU

Variants of: B1
protocol-details: self-cleavage, relative activity (ratio to wild type); higher = more cleavage; co-transcriptional
// bucketize self-cleavage: interval 1 = under 0.2, interval 2 = from 0.2 up to 0.8, interval 3 = 0.8 and over

[[record]]
mutant_name = "C6A C27G"
assigned_label = "interval 1"

[[record]]
mutant_name = "C22U A51G"
assigned_label = "interval 2"

[[record]]
mutant_name = "G2U U20G"
assigned_label = "interval 1"

[[record]]
mutant_name = "U67C G68A"
assigned_label = "interval 3"

[[record]]
mutant_name = "G3C G17C"
assigned_label = "interval 1"


Q: In plain terms, what class is G30A U43G ?
A: interval 2

Q: In plain terms, what class is G2C A15G ?
A: interval 1

Q: In plain terms, what class is C24U G65A ?
A: interval 2

Q: In plain terms, what class is A13G A52C ?
A: interval 3

Q: In plain terms, what class is C24A U64A ?
A: interval 2

Q: In plain terms, what class is G11U C45U ?
A: interval 3
